# target.system: CCK-A receptors (Rattus norvegicus, UniProt P30551)
# Sequence (P30551 whole entry): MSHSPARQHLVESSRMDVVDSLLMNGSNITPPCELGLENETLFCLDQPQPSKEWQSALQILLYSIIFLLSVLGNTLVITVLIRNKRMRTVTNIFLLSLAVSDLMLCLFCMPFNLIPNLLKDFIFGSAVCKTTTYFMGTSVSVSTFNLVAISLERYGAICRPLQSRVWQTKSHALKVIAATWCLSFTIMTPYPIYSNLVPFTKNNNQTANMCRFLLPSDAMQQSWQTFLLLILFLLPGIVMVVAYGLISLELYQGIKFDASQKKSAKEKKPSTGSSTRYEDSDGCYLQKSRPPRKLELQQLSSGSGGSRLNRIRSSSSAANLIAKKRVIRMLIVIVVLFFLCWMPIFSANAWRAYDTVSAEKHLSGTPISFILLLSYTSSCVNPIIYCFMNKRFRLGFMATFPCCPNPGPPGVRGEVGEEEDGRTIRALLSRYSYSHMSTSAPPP
pIC50: −log10 of the molar value.
Entry flag: True if pIC50 reaches 6; False if it does not.

compound	assigned.category
Cc1cccc(NC(=O)N[C@@H]2N=C(c3ccccc3)c3ccccc3N(C[C@H](O)C3CCCC3)C2=O)c1 [Example 19]	True
Cc1cccc(NC(=O)N[C@@H]2N=C(c3ccccc3)c3ccccc3N(C[C@@H](O)C3CCCC3)C2=O)c1 (racemic)	False
O=C(Nc1cccc(C(=O)O)c1)N[C@@H]1N=C(c2ccccc2)c2ccccc2N(CC(O)C2CCCC2)C1=O (mixture of isomers)	False

# input Identify whether the reported pIC50 of the following compound is 6 or greater: O=C(Nc1cccc(C(=O)O)c1)NC1N=C(c2ccccn2)c2ccccc2N(CC(=O)C2CCCC2)C1=O (racemic)
# output False

# input Identify whether the reported pIC50 of the following compound is 6 or greater: COc1cccc(NC(=O)NC2N=C(c3ccccc3)c3ccccc3N(CC(=O)C3CCCC3)C2=O)c1 (racemic)
# output True

* * *

Measured A/B Ratio accompanies every entry in the list below.
# target.system: CCK-B receptors (Rattus norvegicus, UniProt P30553)
# Construct: the whole brain was immediately excised from each of the rats and homogenized; from tissue; host or cells: SD rat whole brain membranes
# Sequence (P30553 whole entry): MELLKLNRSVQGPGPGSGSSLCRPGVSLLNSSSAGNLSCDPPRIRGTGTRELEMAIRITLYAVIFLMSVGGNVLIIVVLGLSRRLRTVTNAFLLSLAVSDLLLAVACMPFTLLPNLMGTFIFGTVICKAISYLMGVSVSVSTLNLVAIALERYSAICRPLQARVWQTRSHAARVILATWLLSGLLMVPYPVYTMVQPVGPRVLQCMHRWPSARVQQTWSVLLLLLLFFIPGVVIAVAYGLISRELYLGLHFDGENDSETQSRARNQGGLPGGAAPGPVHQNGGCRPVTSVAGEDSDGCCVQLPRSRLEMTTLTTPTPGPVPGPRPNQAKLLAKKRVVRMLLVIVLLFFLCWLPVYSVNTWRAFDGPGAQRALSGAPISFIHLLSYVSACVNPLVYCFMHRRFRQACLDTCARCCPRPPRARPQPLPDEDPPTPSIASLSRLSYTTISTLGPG
# assay: Measurement of binding affinity for CCK-B receptors ([125I]BH-CCK-8, rat brain membranes)
# Parameters: species or system SD rats
# conditions: ratio IC50 (CCK-A)/IC50 (CCK-B)

Observe how each entry below is paired with its result.
compound	target.system	A/B Ratio
Cc1cccc(NC(=O)NC2N=C(c3ccccc3)c3ccccc3N(CC(=O)CC3CCCCC3)C2=O)c1 (racemic) [Example 32]	CCK-B receptors (Rattus norvegicus, UniProt P30553)	1,700
O=C(Nc1cccc(C(=O)O)c1)N[C@@H]1N=C(c2ccccc2)c2ccccc2N(CC(=O)C2CCCC2)C1=O [Example 23]	CCK-B receptors (Rattus norvegicus, UniProt P30553)	11,000
Cc1cccc(NC(=O)NC2N=C(c3ccccc3)c3ccccc3N(CC(=O)C3CCCC3)C2=O)c1 (racemic) [Example 4]	CCK-B receptors (Rattus norvegicus, UniProt P30553)	1,900

# input Print CCK-B receptors (Rattus norvegicus, UniProt P30553) A/B Ratio for COc1cccc(NC(=O)NC2N=C(c3ccccc3)c3ccccc3N(CC(=O)C3CCCC3)C2=O)c1 (racemic) [Example 42] .
# output 5,100

# input Print CCK-B receptors (Rattus norvegicus, UniProt P30553) A/B Ratio for Cc1cccc(NC(=O)N[C@@H]2N=C(c3ccccc3)c3ccccc3N(C[C@H](O)C3CCCC3)C2=O)c1 [Example 19] .
# output 1,200

# input Print CCK-B receptors (Rattus norvegicus, UniProt P30553) A/B Ratio for CC(=O)N1CCC[C@H]1C(=O)CN1C(=O)C(NC(=O)Nc2cccc(C)c2)N=C(c2ccccc2)c2ccccc21 (mixture of isomers) [Example 9] .
# output > 1,400

# input Print CCK-B receptors (Rattus norvegicus, UniProt P30553) A/B Ratio for Cc1cccc(NC(=O)N[C@@H]2N=C(c3ccccc3)c3ccccc3N(C[C@@H](O)C3CCCC3)C2=O)c1 (racemic) [Example 13] .
# output > 91,000

# input Print CCK-B receptors (Rattus norvegicus, UniProt P30553) A/B Ratio for O=C(Nc1cccc(C(=O)O)c1)NC1N=C(c2ccccn2)c2ccccc2N(CC(=O)C2CCCC2)C1=O (racemic) [Example 22] .
# output > 2,900

# input Print CCK-B receptors (Rattus norvegicus, UniProt P30553) A/B Ratio for Cc1cccc(NC(=O)N[C@@H]2N=C(c3ccccc3)c3ccccc3N(CC(=O)C3CCCC3)C2=O)c1 [Example 17] .
# output 36,000

# input Print CCK-B receptors (Rattus norvegicus, UniProt P30553) A/B Ratio for O=C(Nc1cccc(C(=O)O)c1)N[C@@H]1N=C(c2ccccc2)c2ccccc2N(CC(O)C2CCCC2)C1=O (mixture of isomers) [Example 24] .
# output > 10,000

* * *

# target.system: CCK-B receptors (Rattus norvegicus)
# Construct: the whole brain was immediately excised from each of the rats and homogenized
# assay: Measurement of binding affinity for CCK-B receptors ([125I]BH-CCK-8, rat brain membranes)
# conditions: rat brain membranes, [125I]BH-CCK-8, 25° C., 120 minutes, pH 6.5; read-out: Receptor binding affinity IC50, CCK-B
Measured log10(IC50) accompanies every entry in the list below.
The figures below represent log10 of IC50, where IC50 is stated in nM.

compound	target.system	observable	recorded.result
O=C(Nc1cccc(C(=O)O)c1)N[C@@H]1N=C(c2ccccc2)c2ccccc2N(CC(O)C2CCCC2)C1=O (mixture of isomers)	CCK-B receptors (Rattus norvegicus)	log10(IC50)	-0.01

# input Provide one value: measured log10(IC50) of `O=C(Nc1cccc(C(=O)O)c1)N[C@@H]1N=C(c2ccccc2)c2ccccc2N(C[C@H](O)C2CCCC2)C1=O`
# output -0.19

# input Provide one value: measured log10(IC50) of `O=C(Nc1cccc(C(=O)O)c1)N[C@@H]1N=C(c2ccccc2)c2ccccc2N(CC(=O)C2CCCC2)C1=O`
# output -1.10

# input Provide one value: measured log10(IC50) of CC(=O)N1CCC[C@H]1C(=O)CN1C(=O)C(NC(=O)Nc2cccc(C)c2)N=C(c2ccccc2)c2ccccc21 (mixture of isomers)
# output 0.86

# input Provide one value: measured log10(IC50) of Cc1cccc(NC(=O)N[C@@H]2N=C(c3ccccc3)c3ccccc3N(C[C@H](O)C3CCCC3)C2=O)c1 (racemic) [Example 12]
# output 0.15

# input Provide one value: measured log10(IC50) of COc1cccc(NC(=O)NC2N=C(c3ccccc3)c3ccccc3N(CC(=O)C3CCCC3)C2=O)c1 (racemic)
# output -1.15

* * *

Measured pIC50 accompanies every entry in the list below.
# target.system: CCK-B receptors (Rattus norvegicus, UniProt P30553)
# Construct: the whole brain was immediately excised from each of the rats and homogenized
# assay: Measurement of binding affinity for CCK-B receptors ([125I]BH-CCK-8, rat brain membranes)
# conditions: rat brain membranes, [125I]BH-CCK-8, 25° C., 120 minutes, pH 6.5; read-out: Receptor binding affinity IC50, CCK-B
pIC50 is defined as minus the log10 of a concentration measured in mol/L.

Observe how each entry below is paired with its result.
molecule	recorded.result
CC(C)(C)C(=O)CN1C(=O)C(NC(=O)Nc2cccc([N+](=O)[O-])c2)N=C(c2ccccc2)c2ccccc21 (racemic)	9.80
Cc1cccc(NC(=O)N[C@@H]2N=C(c3ccccc3)c3ccccc3N(C[C@@H](O)C3CCCC3)C2=O)c1 (racemic)	9.96
O=C(Nc1cccc(C(=O)O)c1)NC1N=C(c2ccccn2)c2ccccc2N(CC(=O)C2CCCC2)C1=O (racemic)	8.46
NC(=O)c1cccc(NC(=O)NC2N=C(c3ccccc3)c3ccccc3N(CC(=O)C3CCCC3)C2=O)c1 (racemic)	8.96
Cc1cccc(NC(=O)N[C@@H]2N=C(c3ccccc3)c3ccccc3N(C[C@H](O)C3CCCC3)C2=O)c1 [Example 19]	9.04

# input Provide one value: measured pIC50 of `Cc1cccc(NC(=O)N[C@@H]2N=C(c3ccccc3)c3ccccc3N(CC(=O)C3CCCC3)C2=O)c1`
# output 10.15

# input Provide one value: measured pIC50 of O=C(O)Cc1cccc(NC(=O)NC2N=C(c3ccccc3)c3ccccc3N(CC(=O)C3CCCC3)C2=O)c1 (racemic)
# output 9.28

# input Provide one value: measured pIC50 of O=C(Nc1cccc([N+](=O)[O-])c1)NC1N=C(c2ccccc2)c2ccccc2N(CC(=O)C2CCCC2)C1=O (racemic)
# output 9.77

* * *

Measured A/B Ratio accompanies every entry in the list below.
# target.system: CCK-B receptors (Rattus norvegicus, UniProt P30553)
# Construct: the whole brain was immediately excised from each of the rats and homogenized; from tissue; host or cells: SD rat whole brain membranes
# assay: Measurement of binding affinity for CCK-B receptors ([125I]BH-CCK-8, rat brain membranes)
# Design: species or system SD rats
# conditions: ratio IC50 (CCK-A)/IC50 (CCK-B)

molecule	recorded.result
O=C(Nc1cccc([N+](=O)[O-])c1)NC1N=C(c2ccccc2)c2ccccc2N(CC(=O)C2CCCC2)C1=O (racemic)	9,400
O=C(O)Cc1cccc(NC(=O)NC2N=C(c3ccccc3)c3ccccc3N(CC(=O)C3CCCC3)C2=O)c1 (racemic)	6,400
Cc1cccc(NC(=O)NC2N=C(c3ccccn3)c3ccccc3N(CC(=O)C3CCCC3)C2=O)c1 (racemic)	22,000
NC(=O)c1cccc(NC(=O)NC2N=C(c3ccccc3)c3ccccc3N(CC(=O)C3CCCC3)C2=O)c1 (racemic)	1,700
Cc1cccc(NC(=O)N[C@@H]2N=C(c3ccccc3)c3ccccc3N(C[C@H](O)C3CCCC3)C2=O)c1 (racemic) [Example 12]	> 7,100
O=C(Nc1cccc(C(=O)O)c1)N[C@@H]1N=C(c2ccccc2)c2ccccc2N(C[C@H](O)C2CCCC2)C1=O	> 15,000

Alright, here's another molecule for you.
# input Provide one value: measured A/B Ratio of Cc1cccc(NC(=O)NC2N=C(c3ccccc3)c3ccccc3N(CC(=O)C3(C)CCCCC3)C2=O)c1 (racemic)
# output > 26,000
